assay: NCI Yeast Anticancer Drug Screen. Data for the mlh1 rad18 strain (AID 175); settings: S. cerevisiae mlh1 rad18 strain growth inhibition; at 50.0 µM (retest, dose inferred, filed as 5.0); stronger effect = higher value
The panel holds about 79,000 compounds, 15% with a hit somewhere; the sample as a whole holds those more often. Where a SMILES comes first, the peptide text is derived from it. The star is where a group is joined. Cbz = O=C(OCc1ccccc1)*
measurement_type: growth inhibition (%)

1. OC(c1ccc(Cl)cc1)c1ccc(Cl)cc1 : 99
2. CN1N=C2c3ccccc3CC[C@H]2C1c1cccc(O)c1 (some centres not stated) : 82
3. COC(=O)c1cc2c(oc1=O)-c1ccccc1N(C=O)C2 : -21
4. O=C(/C(=C\c1ccccc1)c1ccccc1)c1ccc(Br)cc1 : 2
5. CC1=C(C(=O)OCCO[N+](=O)[O-])C(c2cccc([N+](=O)[O-])c2)C(C(=O)OC(C)C)=C(C)N1 (configuration not stated) : 95
6. C[n+]1c(-c2ccc(/C=N\NC(=O)c3ccc(C(=O)N/N=C/c4ccc(-c5cn6ccsc6[n+]5C)cc4)cc3)cc2)cn2ccsc21 : 97
7. CCOC(=O)CNC(=O)CNC(=O)CNC(=O)OCc1ccccc1 (Cbz-Gly-Gly-Gly-OEt) : -13

###

assay: NCI Yeast Anticancer Drug Screen. Data for the bub3 strain (AID 167); conditions: S. cerevisiae bub3 mutant strain, at 5.0 µM (retest, dose inferred, filed as 0.5)
This is part of a sample that, as a whole, favours compounds with a hit. Of some 79,000 tested, about 15% had one in any assay. Calls of active or inactive are those of the source. Cut-off read from the data, not from the text of the source: active = growth inhibition above about 70%; inactive = the rest.
Outcomes: YES (active), NO (inactive)

1. N#CC(O)C(Br)(Br)Br (configuration not stated) : NO
2. O=C1C2CCCC3CCCC(C(=O)N1O)C32 (configuration not stated) : YES
3. CN(C)C(C)(C)CCNc1c2ccccc2nc2cccc([N+](=O)[O-])c12 : YES
4. Nc1ccccc1CCc1ccccc1 : NO
5. C=CCOCCC(=O)OCC=C : NO
6. O=Nc1ccc(O)c(/C=N/O)c1 : NO
7. CC/C(Cl)=N\OC(=O)Nc1ccc(F)c(Cl)c1 : NO
8. COc1ccc(/C=C\Cc2cc3c(cc2OCCO)OCO3)cc1 : NO
9. C[n+]1cccc2c1-c1ccccc1C2=O : NO
10. COC(=O)CC1SC(=S)N(Cc2ccc(Cl)cc2)C1=O (configuration not stated) : NO
11. CN(/N=C/C(O)C(O)C(O)CO)c1ccccc1 (configuration not stated) : NO
12. CC(=O)/C=N/Nc1ccccc1 : NO
13. CN(C)[C@H]1CC[C@H]2[C@@H]3CCC4C[C@@H](NC(=O)NC(Cc5ccccc5)c5nccs5)CC[C@]4(C)[C@H]3CC[C@]12C (some centres not stated) : NO
14. CC1CCN(CCOC(=O)C(c2ccccc2)C2C=CCCC2)C1C (configuration not stated) : NO
15. CCN(CC)CCCNc1cccc2ccc(OC)nc12 : NO
16. Nc1nc(N)c2nc(Sc3ccc(F)cc3)c(N)nc2n1 : NO
17. CCN(CC)CCNc1ccc(C)c2sc3cccc(O)c3c(=O)c12 : NO

###

assay: NCI Yeast Anticancer Drug Screen. Data for the mec2-1 strain (AID 157); conditions: S. cerevisiae mec2-1 strain, at 5.0 µM (retest, dose inferred, filed as 0.5), stronger effect = higher value
The panel holds about 79,000 compounds, 15% with a hit somewhere; the sample as a whole holds those more often.
measurement_type: growth inhibition (%)

1) OC(CBr)c1cc(-c2ccccc2)nc2ccccc12 (stereo unspecified) : -2
2) CSS(=O)(=O)c1ccc(C)cc1 : 22
3) Oc1cc(Br)cc2cccnc12 : 98
4) COc1ccccc1NC(=O)CC(=O)N1N=C(c2ccccc2)C(N=Nc2ccc(Cl)cc2)C1=O (stereo unspecified) : 21
5) O=C(O)C1C(=O)OC2CCCCC21 (stereo unspecified) : 1
6) CCOC(=O)C(C#N)c1cc(O)c(C(C#N)C(=O)OCC)cc1O (stereo unspecified) : -3
7) Nc1nc(Cl)cc(Nc2ccc(Cl)c(Cl)c2)n1 : -2
8) CC(=O)OCc1cc(=O)n(C)c2c3c4c(cc12)c(C)cc(=O)n4CO3 : 69
9) NN(c1ccccc1)c1cccc2ccccc12 : -1
10) O=C(CC(=O)c1cc(Cl)ccc1O)c1cccnc1 : 2
11) COC(=O)c1nnc(C(=O)OC)c2c1[nH]c1ccccc12 : 2
12) O=C(CN1CCOCC1)Nc1nc(-c2ccc(Cl)cc2)cs1 : 49
13) O=C(O)/C=C\C(=O)Nc1ccc2c(c1)C(=O)c1cc(F)ccc1-2 : -1
14) O=C(O)CN(CCN1CC(=O)OC(=O)C1)CCN1CC(=O)OC(=O)C1 : -1
15) OC(Cn1cncn1)(Cn1cncn1)c1ccc(Cl)cc1Cl : 62
16) CCCCCCCCCCCCCCCC[n+]1ccc(/C=C/c2ccccc2)cc1 : 100
17) Clc1nc(Cl)nc(N2CCCc3ccccc32)n1 : -10
18) NC(=O)C(CCc1cccc2ccccc12)c1ccccc1 (stereo unspecified) : -10
19) CC1(c2ccccc2)Nc2ccccc2C1=Nc1ccccc1 (stereo unspecified) : -4
20) CCCCCCSc1nc2ccc(N=Cc3ccccc3O)cc2s1 : 83
21) CN1C(=O)CCCCCCCCCCSc2ccccc21 : 8

###

experiment: NCI Yeast Anticancer Drug Screen. Data for the cln2 rad14 strain (AID 165);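 also: 0% = growth equal to vehicle treated cultures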; conditions: S. cerevisiae cln2 rad14 strain, at 5.0 µM (retest, dose inferred, filed as 0.5), stronger effect = higher value
About 79,000 compounds went through this panel and 15% of them were active in at least one assay; those are over-represented in the sample as a whole.
Listed compounds paired with reported growth inhibition
measurement_type: growth inhibition (%)

1. Cc1cc(NS(=O)(=O)c2ccc(N)cc2)no1.[Ag] : 99
2. O=P1(NCC2CCCO2)OCC2(CO1)COP(=O)(NCC1CCCO1)OC2 (configuration not stated) : 99
3. O=C(C(/C=N\C(=S)Nc1ccccc1Cl)=C(/O)c1ccccc1)c1ccccc1 : 95
4. C=CCN1CCC(OC(=O)C(O)(/C=C\CC)C2CCCC2)CC1 (configuration not stated) : 17
5. CCCCCCCCCCCCCCCC[n+]1ccc(/C=C/c2ccccc2)cc1 : 46
6. C/C(C=C(C#N)C#N)=C\c1ccc([N+](=O)[O-])cc1 : 36
7. Cc1cc(N(CCOS(C)(=O)=O)CCOS(C)(=O)=O)ccc1C=Nc1cc(Br)c(O)c(Br)c1 : 4
8. C/C(=N\O)c1ccc2cc(Br)c3ccccc3c2c1 : -20
9. O=C(Cl)C(c1ccccc1)(c1ccccc1)c1ccccc1 : 18
10. OC(C/C(=N\N=C(/CC(O)(C(F)(F)F)C(F)(F)F)c1ccccc1)c1ccccc1)(C(F)(F)F)C(F)(F)F : 6
11. CCC(C)C(C(=O)NOC(=O)c1ccccc1)/C(N)=N/OC(=O)c1ccccc1 (configuration not stated) : 87
12. O=[N+]([O-])c1cccc(F)c1O : 6

###

Entries and their growth inhibition
experiment: NCI Yeast Anticancer Drug Screen. Data for the cln2 rad14 strain (AID 165);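 also: 0% = growth equal to vehicle treated cultures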; settings: S. cerevisiae cln2 rad14 strain, at 50.0 µM (retest, dose inferred, filed as 5.0), stronger effect = higher value
This is part of a sample that, as a whole, favours compounds with a hit. Of some 79,000 tested, about 15% had one in any assay.
measurement_type: growth inhibition (%)

1) CCCC(CCC)NCCOC(=O)C(CC)c1ccccc1 (stereo unspecified) : 62
2) O=C1C2CCCC3CCCC(C(=O)N1O)C32 (stereo unspecified) : 69
3) C[n+]1c(-c2ccc(/C=N\NC(=O)c3cccc(C(=O)N/N=C/c4ccc(-c5cn6ccccc6[n+]5C)cc4)c3)cc2)cn2ccccc21 : 99
4) CCCn1c2ccccc2c2ccc3c(c21)C(=O)C=CC3=O : 35
5) CCOC(=O)C(=O)NNc1ccccc1 : 57
6) CC1NS(=O)(=O)N(C)C1=O (stereo unspecified) : -13
7) O=C(CSc1nnc(-c2ccc(N=Cc3ccc(Cl)cc3)cc2)o1)Nc1ccc(Cl)cc1Cl : 99
8) O=C(/C=C/c1ccccc1)c1cc2c(cc1O)OCO2 : 31
9) CCCCCCCN(CCCCCCC)CC(=O)NC(=O)c1ccccc1 : 99
10) O=P(OCCCl)(OCCCl)C(Nc1cccc2ccccc12)c1ccccc1 (stereo unspecified) : 86
11) CC(=O)OC[C@@]1(C)[C@@H]2CC[C@]3(C)[C@H](C(=O)C=C4[C@@H]5CC(C)(C)CC[C@]5(C(=O)O)CC[C@]43C)[C@@]2(C)CC[C@@H]1OC(C)=O : 93
12) CC(CCCN(C)Cc1ccccc1)Nc1ccnc2cc(Cl)ccc12 (stereo unspecified) : 99
13) CN(C)c1nc(N(C)C)nc([N+](C)(C)C)n1 : -1
14) O=C(/C=C/c1ccccc1)CCN1CCOCC1 : 84
15) O=C(O)C(O)C(O)C(O)C(O)CO.[Ag] (stereo unspecified) : 98
16) C=C1C(=O)O[C@@H]2C[C@]3(C)CC[C@]4(C)[C@H](CC[C@@H]5[C@@]6(C)CCC(=O)C(C)(C)[C@@H]6CC[C@]54C)[C@H]3[C@H]12 : -1
17) S=C(Nc1ccccc1)NC1CCCCCCCCC1 : 71
18) CC(N)C1C(C)CC2C3CC=C4CC(O)CCC4(C)C3CCC21C (stereo unspecified) : 86
19) C/C=C(\C)CC/C=C/CO[Si](C)(C)C(C)(C)C : -4
20) O=C(O)C1C(=O)OC2CCCCC21 (stereo unspecified) : 1
21) Clc1ccc2nc3ccccc3nc2c1 : 79
22) OCN(CO)c1ccc2c(c1)Cc1cc(F)ccc1-2 : 97
23) CN(C)C(=S)S(=O)(=O)CCCCS(=O)(=O)C(=S)N(C)C : -1
24) COC(=O)c1nnn(-c2ccc(S(N)(=O)=O)cc2)c1C(=O)c1ccc(Cl)c(Cl)c1 : 98
25) COc1ccc(/C=C/c2ccnc3ccccc23)cc1OC : 89
26) CC(CN(C)C)C(=O)/C=C/c1c(Cl)cccc1Cl (stereo unspecified) : 44
27) C=CCOCCC(=O)OCC=C : 0
28) CCc1ccc(C)nc1 : 3
29) Cc1ccc2ccc3c(CCN(C)C)cc4c(c3c2c1O)OCO4 : 64
30) Cc1cc2nc3[nH]c4c(Cl)cc(Cl)cc4c3nc2cc1C : 5
31) CCc1ccc(C(=O)O)cc1 : -17
32) COC(OC)C1C2C3C=CC(C4C(=O)OC(=O)C34)C12 (stereo unspecified) : -5
33) CCC(=C(c1ccc(OCCN(C)C)cc1)c1cccc(O)c1)c1ccccc1 (mixture of isomers) : 97
34) COc1ccc(C(=O)C2C(=O)C(=O)OC2C2OC(=O)C(=O)C2C(=O)c2ccc(OC)cc2)cc1 (stereo unspecified) : 1
35) CC1CCN(CCOC(=O)C(c2ccccc2)C2C=CCCC2)C1C (stereo unspecified) : 53
36) COc1cccc2c1OC(c1ccc(C#N)cc1)C([N+](=O)[O-])=C2 (stereo unspecified) : 97
37) N#C/C(=C\c1cc(Cl)cc(Cl)c1O)C(/C(C#N)=C/c1cc(Cl)cc(Cl)c1O)c1ccc2c(c1)OCO2 (stereo unspecified) : 97
38) C=C(C)COc1cc(NC(=S)OC(C)C)ccc1Cl : 86
39) O=C(c1cccs1)N(C(=S)N1CCN(c2ccccn2)CC1)C1CCCCC1 : 44
40) CC1(C)C[C@H]2C=C(C=O)[C@]34C[C@]3(C(=O)OC4O)[C@H]2C1 (stereo partly specified) : 99
41) CN1C(=O)CCC2[C@@H]3CC=C4C[C@@H](O)CC[C@]4(C)C3CC[C@@]21C (stereo partly specified) : 13
